- targetOrTestSystem: T1, marmoset monkey IL4Rα-his protein (marmoset monkey)
- T1 construct: Custom made by Sino biological; no cleavage site stated; also called cal-IL4Rα-his; Cal-IL4Rα
- T1 chain: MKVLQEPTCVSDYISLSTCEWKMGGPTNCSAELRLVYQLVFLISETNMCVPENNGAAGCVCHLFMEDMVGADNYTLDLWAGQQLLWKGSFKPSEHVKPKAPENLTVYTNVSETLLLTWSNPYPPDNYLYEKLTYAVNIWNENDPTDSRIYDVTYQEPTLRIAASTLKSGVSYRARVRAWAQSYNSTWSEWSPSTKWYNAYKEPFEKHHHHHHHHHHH
- assayExplanation: indirect ELISA on coated cal-IL4Rα-his
readoutName: pEC50
Give only the number. pEC50 is defined as minus log10 of concentration in molar units.

**Query** Please report pEC50 for the following binder: chimeric antibody B8G11F2B7G5E8 (antibody, human IgG4 S228P, kappa, V domains shown, Mouse variable domains on human IgG4/kappa; also called Chimeric B8G11F2B7G5E8; chB8G11F2B7G5E8) VH: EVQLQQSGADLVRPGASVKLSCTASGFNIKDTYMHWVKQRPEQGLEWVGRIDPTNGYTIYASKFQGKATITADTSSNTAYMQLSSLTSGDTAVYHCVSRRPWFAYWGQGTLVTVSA VL: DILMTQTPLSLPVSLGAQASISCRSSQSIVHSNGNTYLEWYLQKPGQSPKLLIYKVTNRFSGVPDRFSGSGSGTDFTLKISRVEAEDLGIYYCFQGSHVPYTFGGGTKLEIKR
**Result** 8.99
